Provenance of the data: patent US20250304677A1

Target: T1, mouse folate receptor alpha (mFRα), recombinant protein (mouse, UniProt P35846 25-232)
T1 construct: Bought recombinant proteins (e.g. biotinylated, Acro Biosystems FO1-M82E9); also called mFOLR1; Ms FOLR1
T1 sequence (P35846 25-232 limits assumed): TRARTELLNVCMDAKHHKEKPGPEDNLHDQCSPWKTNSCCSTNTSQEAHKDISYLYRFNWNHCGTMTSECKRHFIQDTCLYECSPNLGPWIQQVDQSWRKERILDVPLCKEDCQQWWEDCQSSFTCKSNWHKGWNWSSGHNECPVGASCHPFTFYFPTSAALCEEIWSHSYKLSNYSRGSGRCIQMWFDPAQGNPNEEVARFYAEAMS
Experiment: BLI, FRα on AR2G biosensors, 1:1 model
property name: koff (s⁻¹)

Look over these answered cases.
{"columns": ["binder", "unit abbrev", "koff"],
 "data": [
  ["VHH 3HFO28 (family 7) (VHH) VHH: QVQLQESGGGLVQPGGSLRLSCAASGSTLDRYEIGWFRQAPGKGRERVSCISTTSSTYEDSVKGRFTISRDNAKNTVYLQMNSLKPEDTAVYYCATVRVAWSTCFPTGDSWGKGTQVTVSS", "s⁻¹", 0.00582],
  ["VHH 2HFO42 (family 3) (VHH, also called 2HF042; Nb42) VHH: QVQLQESGGGLVQAGGSLRLSCAASGSGFSGMIMGWYRQVPGKQRELVATVTSHGTTNYADSVKGRFTISRDNAKNTVLLQMNSLKPEDTAVYYCNAHFPGIYWGKGTQVTVSS", "s⁻¹", 0.00467],
  ["VHH 3MFR60 (family 10) (VHH) VHH: QVQLQESGGGLVQAGGSLRVSCAASGIIFSMNGMGWFRQAPGKQRELVASITSGGSTKYADSVKGRFTISRDNAKNTVYLQMNSLKPEDTAVYYCNIQFGSRWSTYWGQGTQVTVSS", "s⁻¹", 0.00297]
]}

(A) VHH 2HFO19 (family 1) (VHH, also called Nb19) VHH: QVQLQESGGGLVQPGGSLRVSCAASGFPFSTVYMSWVRQAPGKGLEWVSGINNDGGVIDYADSVKGRFTISRDNAKNTLYLQLNSLKPEDTALYFCARGRSFVATLSSSLRGQGTQVTVSS
(B) VHH 3HFO26 (family 1) (VHH) VHH: QVQLQESGGGLVQPGGSLRITCVASGFPFSTYYMSWVRQAPGKGLEWVSGINSNGGVIDYADSVKGRFTISRDNAKNTLYLQLNSLKPEDTALYFCARGRAFVATMPSSLRGQGTQVTVSS
(C) VHH 2MFR7 (family 1) (VHH, also called 2MFRO7) VHH: QVQLQESGGGLVQPGGSLRLSCAASGFPFSTYYMSWVRQAPGKGLEWVSGINSNGGVIDYADSVKGRFTISRDNAKNTLYLQLNSLKPEDTALYFCARGRAFVATMPSSLRGQGTQVTVSS
**Q:** Arrange these 3 binders in increasing order of koff. Give the labels in the order requested.
**A:** A, B, C
(A: 0.00393 s⁻¹, B: 0.0197 s⁻¹, C: 0.0527 s⁻¹)
